These measurements were taken from patent US20260151494A1.

# study_system: T1, apical domain of cynomolgus CD71 (cynomolgus, UniProt A0A2K5X958 189-383)
# T1 construct: domain: apical domain; also called Cyno apical domain
# T1 sequence (A0A2K5X958 entry or part of it): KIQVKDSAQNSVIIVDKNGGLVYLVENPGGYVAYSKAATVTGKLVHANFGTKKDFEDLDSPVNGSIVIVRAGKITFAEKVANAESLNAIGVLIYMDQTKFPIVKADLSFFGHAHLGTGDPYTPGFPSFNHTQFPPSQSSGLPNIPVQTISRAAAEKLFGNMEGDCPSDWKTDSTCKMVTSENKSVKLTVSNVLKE
# measurement_description: primary ELISA, signal ratio to HSA
measured_quantity: Cyno apical domain:HSA

Please review the following examples before continuing.
Q: Indicate its recorded Cyno apical domain:HSA; the binder in question is CD71-binding FN3 domain of SEQ ID NO: 161 (designed binder) MSLPAPKNLVVSRVTEDSARLSWTAPDAAFDSFFIGYLEPQPPGEAIVLTVPGSERSYDLTGLKPGTEYNVTIQGVKGGFPSEPLVAHFTT
Result: 14

Q: Give the value of Cyno apical domain:HSA reported for the following: CD71-binding FN3 domain of SEQ ID NO: 163 (designed binder) MSLPAPKNLVVSRVTEDSARLSWTAPDAAFDSFFIGYLEPQPPGEVIHLYVPGSERSYDLTGLKPGTEYVVFIGGVKGGVWSVPLSAIFTT
Result: 225

I. CD71-binding FN3 domain of SEQ ID NO: 202 (designed binder) MSLPAPKNLVVSRVTEDSARLSWTAPDAAFDSFEIGYFENLYLGEAIVLTVPGSERSYDLTGLKPGTEYYVHIGGVKGGIWSSPLSAIFTT
II. CD71-binding FN3 domain of SEQ ID NO: 173 (designed binder) MSLPAPKNLVVSRVTEDSARLSWTAPDAAFDSFEIAYQELSLWGEAIVLTVPGSERSYDLTGLKPGTEYYVHIGGVKGGIWSSPLVAHFTT
Q: Among I and II , whose measured Cyno apical domain:HSA is the smaller figure? Write down the label attached to your selection.
Result: I
(I: 184, II: 300)
